Record form. Attribute: inhibition at 0.5 µM. Fill in for each entry.
# Tested on: RSV strain A2
# measurement.protocol: RSV antiviral cytoprotection assay in Hep2 cells (96-well and 384-well format, Cell TiterGlo read-out)
# Assay type: cell-based, Respiratory Syncytial Virus (RSV)
# measurement.setup: human respiratory syncytial virus, HEp-2, 0.5 uM; RSV-induced cytopathic effect in Hep2 cells; calculated from fitted dose response curve, normalized to 0% and 100%
Write down the numeric answer in % and omit the unit.

Noted for Cc1[nH]c2cc([C@@H]3C[C@@H](C)CCN3C(=O)c3cc(F)ccc3NS(C)(=O)=O)nn2c(=O)c1C [Compound 22] : its inhibition at 0.5 µM reads 95

Noted for Cc1ccc(NS(C)(=O)=O)c(C(=O)N2CCCC[C@H]2c2cc3nc(C)cc(N(C)C)n3n2)c1 [Compound 39] : its inhibition at 0.5 µM reads 100

Noted for Cc1cn2nc([C@@H]3CCCCN3C(=O)c3cc(Cl)ccc3NS(C)(=O)=O)cc2nc1N1CC(N)C(F)C1 (some centres unmarked) [Compound 250] : its inhibition at 0.5 µM reads 90

Noted for Cc1cn2nc([C@@H]3CC[C@H](C)CN3C(=O)c3cc(Cl)ccc3NS(C)(=O)=O)cc2nc1N1CC[C@@H](O)C1 [Compound 136] : its inhibition at 0.5 µM reads 100

Noted for CN(C)CCN(C)c1cc(N2CC(O)C2)nc2cc([C@@H]3CCCCN3C(=O)c3cc(Cl)ccc3NS(C)(=O)=O)nn12 [Compound 55] : its inhibition at 0.5 µM reads 100

Noted for Cc1cn2nc([C@@H]3CCCCN3C(=O)c3ncc(F)cc3F)cc2nc1N1CC[C@H](N)C1 [Compound 310] : its inhibition at 0.5 µM reads 100

Noted for Cc1cn2nc([C@@H]3CCCCN3C(=O)c3cc(Cl)ccc3NS(C)(=O)=O)cc2nc1N1CCC(c2ccccn2)C1 (some centres unmarked) [Compound 209] : its inhibition at 0.5 µM reads 88

Noted for Cc1cn2nc([C@@H]3CCCCN3C(=O)c3ccc4cccnc4c3)cc2nc1N1CC[C@H](N)C1 [Compound 343] : its inhibition at 0.5 µM reads 60

Noted for CS(=O)(=O)Nc1ccc(Cl)cc1C(=O)N1CCCC[C@H]1c1cc2nc(C3CC3)cc(N3CCOCC3)n2n1 [Compound 63] : its inhibition at 0.5 µM reads 98

Noted for CS(=O)(=O)Nc1ccc(Cl)cc1C(=O)N1CCCC[C@H]1c1cc2nc(N3CCC3)cc(N3CC[C@H](N)C3)n2n1 [Compound 227] : its inhibition at 0.5 µM reads 100

Noted for Cc1ccc(NS(C)(=O)=O)c(C(=O)N2CCCC[C@H]2c2cc3nc(C4CC4)cc(N4CCC4)n3n2)c1 [Compound 65] : its inhibition at 0.5 µM reads 100

Noted for Cc1ccc(NS(C)(=O)=O)c(C(=O)N2CCC(C(F)(F)F)CC2c2cc3[nH]c(C)c(C)c(=O)n3n2)c1 (centres unmarked) [Compound 251] : its inhibition at 0.5 µM reads 73

Noted for Cc1cc(C2CC2)nc2cc([C@@H]3CCCCN3C(=O)[C@](C)(NS(C)(=O)=O)c3ccccc3)nn12 [Compound 240] : its inhibition at 0.5 µM reads 71

Noted for Cc1cn2nc([C@@H]3CCCCN3C(=O)c3cc(Cl)ccc3NS(C)(=O)=O)cc2nc1N1CCC(O)CC1 [Compound 218] : its inhibition at 0.5 µM reads 72

###

Record form. Attribute: inhibition at 0.5 µM. Fill in for each entry.
# Tested on: RSV strain A2
# measurement.protocol: RSV antiviral cytoprotection assay in Hep2 cells (96-well and 384-well format, Cell TiterGlo read-out)
# Format: cell-based, Respiratory Syncytial Virus (RSV)
# measurement.setup: human respiratory syncytial virus, HEp-2, 0.5 uM; RSV-induced cytopathic effect in Hep2 cells; calculated from fitted dose response curve, normalized to 0% and 100%
Write down the numeric answer in % and omit the unit.

Noted for `Cc1cn2nc([C@@H]3CCCCN3C(=O)c3ccccc3OC(F)F)cc2nc1N1CC[C@H](N)C1` : its inhibition at 0.5 µM reads 100

Noted for `CC(=O)Nc1ccc(Cl)cc1C(=O)N1CCCC[C@H]1c1cc2nc(N3CC(N)C3)c(C)cn2n1` : its inhibition at 0.5 µM reads 100

Noted for `Cc1cn2nc([C@@H]3CCCCN3C(=O)c3cccnc3N)cc2nc1N1CC[C@H](N)C1` : its inhibition at 0.5 µM reads 100

Noted for `Cc1cn2nc([C@@H]3CCCCN3C(=O)c3cccn4c(C)nnc34)cc2nc1N1CC[C@H](N)C1` : its inhibition at 0.5 µM reads 100

Noted for `CS(=O)(=O)Nc1ccc(Cl)cc1C(=O)N1CCCC[C@H]1c1cc2nc(N3CCC3)cc(N3CCN[C@@H](C(F)F)C3)n2n1` : its inhibition at 0.5 µM reads 88

Noted for `Cc1ccc(NS(C)(=O)=O)c(C(=O)N2CCCC[C@H]2c2cc3nc(N4CC[C@@H](C#N)C4)c(C)cn3n2)c1` : its inhibition at 0.5 µM reads 100

Noted for `Cc1cn2nc([C@@H]3CCCCN3C(=O)c3cc(C)n(C(F)F)n3)cc2nc1N1CC[C@H](N)C1` : its inhibition at 0.5 µM reads 96

Noted for `CS(=O)(=O)Nc1ccc(Cl)cc1C(=O)N1CCCC[C@H]1c1cc2nc(N3CCC3)cc(N3CC4(COC4)C3)n2n1` : its inhibition at 0.5 µM reads 100

Noted for `Cc1ccc(NS(C)(=O)=O)c(C(=O)N2CCCC[C@H]2c2cc3nc(C)c(C)c(-c4ccccc4)n3n2)c1` : its inhibition at 0.5 µM reads 99

Noted for `Cc1ccc(NS(C)(=O)=O)c(C(=O)N2CCCC[C@H]2c2cc3nc(C)c(C)c(N4CCCC4)n3n2)c1` : its inhibition at 0.5 µM reads 98

Noted for `Cc1cn2nc([C@@H]3CCCCN3C(=O)c3nc4ccccn4c3F)cc2nc1N1CC[C@H](N)C1` : its inhibition at 0.5 µM reads 99

Noted for `Cc1cc(C)n2ncc(C(=O)N3CCCC[C@H]3c3cc4nc(N5CC[C@H](N)C5)c(C)cn4n3)c2n1` : its inhibition at 0.5 µM reads 100

Noted for `CC(C)(C)OC(=O)N1CCN(c2cc(C3CC3)nc3cc([C@@H]4CCCCN4C(=O)c4cc(Cl)ccc4NS(C)(=O)=O)nn23)CC1` : its inhibition at 0.5 µM reads 100

Noted for `Cc1cc(C(=O)N2CCCC[C@H]2c2cc3nc(N4CC[C@H](N)C4)c(C)cn3n2)c(Cl)nn1` : its inhibition at 0.5 µM reads 75

Noted for COC1CN(c2nc3cc([C@@H]4CCCCN4C(=O)c4cc(Cl)ccc4NS(C)(=O)=O)nn3cc2C)CC1N (some centres unmarked) : its inhibition at 0.5 µM reads 100

Noted for CS(=O)(=O)Nc1ccc(Cl)cc1C(=O)N1CCCC[C@H]1c1cc2nc(N3CCC3)cc(N3CCC(O)C3)n2n1 (some centres unmarked) : its inhibition at 0.5 µM reads 100

Noted for `Cc1cn2nc([C@@H]3CCCCN3C(=O)c3ccnc(Cl)c3F)cc2nc1N1CC[C@H](N)C1` : its inhibition at 0.5 µM reads 100

Noted for `Cc1ccc(NS(C)(=O)=O)c(C(=O)N2CCCC[C@H]2c2cc3nc(C4CC4)cc(N4CCOCC4)n3n2)c1` : its inhibition at 0.5 µM reads 100

Noted for `CCn1nc(C(=O)N2CCCC[C@H]2c2cc3nc(N4CC[C@H](N)C4)c(C)cn3n2)cc1C` : its inhibition at 0.5 µM reads 100

Noted for `CS(=O)(=O)Nc1ccc(Cl)cc1C(=O)N1CCCC[C@H]1c1cc2nc(N3CC(O)C3)ccn2n1` : its inhibition at 0.5 µM reads 98

Noted for `CC(=O)Nc1ccc(Cl)cc1C(=O)N1CCCC[C@H]1c1cc2nc(C3CC3)cc(C)n2n1` : its inhibition at 0.5 µM reads 99

Noted for `CS(=O)(=O)Nc1ccc(Cl)cc1C(=O)N1CCCC[C@H]1c1cc2nc(N3CCC3)cc(N3CCN(CC(F)(F)F)CC3)n2n1` : its inhibition at 0.5 µM reads 100

Noted for `Cc1cn2nc([C@@H]3CCCCN3C(=O)c3ccnn3C)cc2nc1N1CC[C@H](N)C1` : its inhibition at 0.5 µM reads 99

Noted for `CS(=O)(=O)Nc1ccc(Cl)cc1C(=O)N1CCCC[C@H]1c1cc2nc(N3CC(O)C3)cc(N3CCOC3)n2n1` : its inhibition at 0.5 µM reads 100

Noted for `Cc1cc(C(=O)N2CCCC[C@H]2c2cc3nc(N4CC[C@H](N)C4)c(C)cn3n2)no1` : its inhibition at 0.5 µM reads 53

Noted for `Cc1[nH]c2cc([C@@H]3COCCN3C(=O)c3ccccc3NS(C)(=O)=O)nn2c(=O)c1C` : its inhibition at 0.5 µM reads 7

Noted for `Cc1cn2nc([C@@H]3CCCCN3C(=O)c3ocnc3C)cc2nc1N1CC[C@H](N)C1` : its inhibition at 0.5 µM reads 100

Noted for `Cc1cn2nc([C@@H]3CCCCN3C(=O)c3cc(Cl)ccc3NS(C)(=O)=O)cc2nc1N1CCC[C@H]1CN` : its inhibition at 0.5 µM reads 86

Noted for `COc1cccc(C(=O)N2CCCC[C@H]2c2cc3nc(N4CC[C@H](N)C4)c(C)cn3n2)c1` : its inhibition at 0.5 µM reads 97
